Experimental System: T1, human PRLR on cells (human, UniProt P16471 25-622)
T1 sequence: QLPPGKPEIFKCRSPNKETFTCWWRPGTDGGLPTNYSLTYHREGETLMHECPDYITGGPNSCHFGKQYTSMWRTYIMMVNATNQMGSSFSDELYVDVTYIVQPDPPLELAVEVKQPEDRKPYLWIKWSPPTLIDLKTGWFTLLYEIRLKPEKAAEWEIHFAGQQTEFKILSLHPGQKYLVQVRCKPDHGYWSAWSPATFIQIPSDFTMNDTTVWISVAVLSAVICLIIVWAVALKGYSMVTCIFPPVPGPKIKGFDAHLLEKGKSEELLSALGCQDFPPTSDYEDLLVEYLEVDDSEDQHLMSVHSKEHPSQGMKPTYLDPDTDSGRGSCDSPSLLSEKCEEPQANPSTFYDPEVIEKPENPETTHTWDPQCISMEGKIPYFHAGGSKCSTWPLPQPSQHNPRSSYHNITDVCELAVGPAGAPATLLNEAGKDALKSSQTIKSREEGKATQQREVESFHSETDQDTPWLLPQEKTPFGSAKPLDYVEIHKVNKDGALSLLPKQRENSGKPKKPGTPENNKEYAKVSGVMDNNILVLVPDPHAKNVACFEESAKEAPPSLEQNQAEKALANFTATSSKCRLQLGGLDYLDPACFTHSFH
Measurement Description: cell-based or functional assay
Measured Baf3-hPRLR proliferation IC50, listed per entry for reference.
Reported Property: Baf3-hPRLR proliferation IC50 (µg/mL)

>>> measured_value("Ab48 (antibody, human IgG1, kappa, V domains shown, humanized from Ab8; G1; also called Ab3 HC.1a and Ab3 LC.1a) VH: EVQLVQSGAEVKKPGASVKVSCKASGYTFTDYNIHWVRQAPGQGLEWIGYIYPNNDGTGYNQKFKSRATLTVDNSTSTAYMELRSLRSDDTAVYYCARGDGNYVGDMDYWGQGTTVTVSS VL: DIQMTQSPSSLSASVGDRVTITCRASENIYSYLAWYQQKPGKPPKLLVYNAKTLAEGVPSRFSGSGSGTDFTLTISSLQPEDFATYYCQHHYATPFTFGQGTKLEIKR")
0.4
>>> measured_value("Ab36 (antibody, human IgG1, kappa, V domains shown, humanized from Ab7; G1; also called Ab4 HC.1 and Ab4 LC.1a) VH: EVQLVQSGAEVKKPGSSVKVSCKASGYTFTSYWIHWVRQAPGQGLEWMGEIDPSDSYTNYNQKFKGRVTITADKSTSTAYMELSSLRSEDTAVYYCARSFFTNWFAYWGQGTLVTVSS VL: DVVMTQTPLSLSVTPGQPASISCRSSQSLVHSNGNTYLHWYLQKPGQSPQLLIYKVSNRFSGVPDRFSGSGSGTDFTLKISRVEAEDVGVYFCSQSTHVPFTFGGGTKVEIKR")
0.28
>>> measured_value("Ab11 (antibody, V domains shown, murine monoclonal, isotype G1; also called murine Ab11) VH: EVKLVESGGGLVQPGGSLKLSCAASGFTFSDYYMFWVRQTPEKSLEWVAYISNGGGSTYYPDTVKGRFTISRDNAKNTLYLQMSRLKSEDTAMYYCSRQLFYYGSRGAMGYWGQGTSVTVSS VL: DVLMTQTPLSLPVSLGDQASISCRSSQSIVHSNGNTYLEWYLQKPGQSPKLLIYKVSNRFSGVPDRFSGSGSGTDFTLKISRVEAEDLGVYYCFQGSHVPFTFGSGTKLEIK")
1.11
